- System: platelet aggregation produced by 5-hydroxytryptamine in human platelet-rich plasma (PRP)
- EXPERIMENTAL_PROTOCOL: Platelet aggregation in man induced by 5-hydroxytryptamine
- Assay type: cell-based
- CONDITION_SET: 5-hydroxytryptamine 10 μM in the presence of 0.3 μM adenosine diphosphate and 1 μM adrenalin, read-out: IC50, inhibition of platelet aggregation produced by 5-hydroxytryptamine
- Experimental: Venous blood is obtained from human volunteers who have not taken aspirin for at least 14 days prior to the experiment. The blood is removed over sodium citrate (0.109 M) (1 vol. of citrate over 9 vol. of blood). Platelet-rich plasma (PRP) is obtained by centrifugation (20° C.) at 200 g for 10 minutes. The number of platelets is on average 250000 PL/mm^3. The PRP is stored at room temperature until the test and is used within 2 hours of having been taken. […]
QUANTITY_KIND: pIC50
Value format note: pIC50 is -log10 of concentration (mol/L); just state the number.

Which measured pIC50 belongs to CN(C)CCCOc1ccccc1CCc1cc(CCNS(=O)(=O)c2ccc(Cl)cc2)cc(CCC(=O)O)c1 , tested on platelet aggregation produced by 5-hydroxytryptamine in human platelet-rich plasma (PRP)?
6.02
